# TARGET SYSTEM: Voltage-dependent L-type calcium channel subunit alpha-1C (Homo sapiens)
# Sequence (Q13936 whole entry): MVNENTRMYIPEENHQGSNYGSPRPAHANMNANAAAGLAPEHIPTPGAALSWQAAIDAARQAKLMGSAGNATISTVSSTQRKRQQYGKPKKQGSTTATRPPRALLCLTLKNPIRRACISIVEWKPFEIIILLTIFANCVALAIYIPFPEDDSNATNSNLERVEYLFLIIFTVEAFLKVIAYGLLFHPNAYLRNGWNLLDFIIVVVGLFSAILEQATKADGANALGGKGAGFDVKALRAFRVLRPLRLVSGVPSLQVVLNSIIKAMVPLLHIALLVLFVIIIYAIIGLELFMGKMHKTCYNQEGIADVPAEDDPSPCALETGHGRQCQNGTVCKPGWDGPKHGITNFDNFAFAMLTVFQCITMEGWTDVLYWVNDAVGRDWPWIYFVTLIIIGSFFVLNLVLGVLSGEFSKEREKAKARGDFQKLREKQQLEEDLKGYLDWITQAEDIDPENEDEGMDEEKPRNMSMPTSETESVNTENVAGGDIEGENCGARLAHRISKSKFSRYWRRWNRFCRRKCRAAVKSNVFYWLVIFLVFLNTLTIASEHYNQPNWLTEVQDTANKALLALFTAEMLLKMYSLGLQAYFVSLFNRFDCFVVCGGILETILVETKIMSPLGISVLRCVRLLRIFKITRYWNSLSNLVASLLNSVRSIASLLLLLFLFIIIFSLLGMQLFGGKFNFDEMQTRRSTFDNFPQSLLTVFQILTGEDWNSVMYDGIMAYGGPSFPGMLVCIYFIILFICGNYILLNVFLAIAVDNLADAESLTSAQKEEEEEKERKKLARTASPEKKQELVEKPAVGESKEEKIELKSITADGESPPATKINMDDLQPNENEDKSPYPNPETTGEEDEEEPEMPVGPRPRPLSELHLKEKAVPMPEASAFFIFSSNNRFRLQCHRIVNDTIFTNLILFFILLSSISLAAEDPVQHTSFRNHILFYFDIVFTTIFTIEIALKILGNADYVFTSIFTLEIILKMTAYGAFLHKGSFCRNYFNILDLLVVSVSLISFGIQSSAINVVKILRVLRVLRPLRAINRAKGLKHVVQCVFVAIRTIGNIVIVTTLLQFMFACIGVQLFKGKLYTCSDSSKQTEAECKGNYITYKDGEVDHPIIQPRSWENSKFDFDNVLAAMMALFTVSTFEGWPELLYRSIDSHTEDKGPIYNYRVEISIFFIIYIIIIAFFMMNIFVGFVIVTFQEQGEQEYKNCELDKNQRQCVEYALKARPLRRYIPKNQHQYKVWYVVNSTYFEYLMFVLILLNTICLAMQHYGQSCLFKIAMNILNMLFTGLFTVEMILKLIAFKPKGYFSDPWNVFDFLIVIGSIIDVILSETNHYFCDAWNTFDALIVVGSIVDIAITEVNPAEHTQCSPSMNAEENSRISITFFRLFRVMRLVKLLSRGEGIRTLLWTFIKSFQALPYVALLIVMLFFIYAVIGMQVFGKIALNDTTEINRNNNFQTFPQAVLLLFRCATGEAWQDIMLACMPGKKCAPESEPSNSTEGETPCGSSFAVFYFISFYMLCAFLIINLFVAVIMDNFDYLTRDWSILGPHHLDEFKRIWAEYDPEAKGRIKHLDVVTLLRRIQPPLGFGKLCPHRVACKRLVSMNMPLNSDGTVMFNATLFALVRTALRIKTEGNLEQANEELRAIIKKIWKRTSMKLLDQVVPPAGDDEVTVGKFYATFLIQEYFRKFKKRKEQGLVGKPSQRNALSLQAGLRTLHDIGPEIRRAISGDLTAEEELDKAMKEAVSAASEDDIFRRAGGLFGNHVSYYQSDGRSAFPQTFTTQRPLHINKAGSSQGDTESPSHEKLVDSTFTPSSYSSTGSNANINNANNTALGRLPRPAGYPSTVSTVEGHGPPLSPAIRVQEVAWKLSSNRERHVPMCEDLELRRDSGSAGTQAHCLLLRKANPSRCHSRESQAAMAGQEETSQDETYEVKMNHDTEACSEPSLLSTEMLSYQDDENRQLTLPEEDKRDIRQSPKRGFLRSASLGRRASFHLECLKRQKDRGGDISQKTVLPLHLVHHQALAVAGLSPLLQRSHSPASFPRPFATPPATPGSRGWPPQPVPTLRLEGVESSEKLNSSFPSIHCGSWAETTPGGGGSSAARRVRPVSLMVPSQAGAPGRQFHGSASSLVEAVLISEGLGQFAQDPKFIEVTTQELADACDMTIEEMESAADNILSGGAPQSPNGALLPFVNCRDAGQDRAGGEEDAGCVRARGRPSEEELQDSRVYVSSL
# TEST: Binding affinity to human Cav1.2 by radio-ligand binding assay
READOUT KIND: pIC50
On this scale, pIC50 is minus log10 of a concentration expressed in M (mol/L).

Note pIC50 for the molecule shown: `Cc1nnc2sc(C(=O)NCc3ccc(S(=O)(=O)C(F)F)cc3)c(N)c2c1C` 5.24

---

Cytochrome P450 2D6 (Homo sapiens, UniProt P10635) pIC50 data
Sequence (P10635 whole entry): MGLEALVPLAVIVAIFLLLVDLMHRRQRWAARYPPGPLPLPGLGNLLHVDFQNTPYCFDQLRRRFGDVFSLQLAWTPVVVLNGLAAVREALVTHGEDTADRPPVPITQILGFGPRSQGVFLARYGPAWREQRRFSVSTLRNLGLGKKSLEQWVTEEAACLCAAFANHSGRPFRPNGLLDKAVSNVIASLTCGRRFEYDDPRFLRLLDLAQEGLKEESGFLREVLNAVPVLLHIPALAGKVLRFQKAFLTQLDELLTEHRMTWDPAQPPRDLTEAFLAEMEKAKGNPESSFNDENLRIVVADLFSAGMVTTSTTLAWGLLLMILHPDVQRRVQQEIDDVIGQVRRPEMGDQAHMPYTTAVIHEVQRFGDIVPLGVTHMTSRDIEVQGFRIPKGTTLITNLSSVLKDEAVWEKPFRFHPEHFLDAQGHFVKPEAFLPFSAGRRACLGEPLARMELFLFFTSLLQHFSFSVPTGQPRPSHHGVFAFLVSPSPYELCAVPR
On this scale, pIC50 is minus log10 of a concentration expressed in M (mol/L).

>  <SMILES NOTATION>
Cc1nnc2sc(C(=O)NCc3ccc(S(=O)(=O)C(F)F)cc3)c(N)c2c1C

>  <READOUT VALUE>
4.68

$$$$

// switching to the query molecule
Note pIC50 for the molecule shown: `Cc1nnc2sc(C(=O)NCc3ccc(S(F)(F)(F)(F)F)cc3)c(N)c2c1C` 4.62

---

# TEST: Ratio of total drug level in brain to plasma in Sprague-Dawley rat at 0.20 to 0.25 mg/kg, iv administered through cassette dosing after 0.25 hrs
# Assay type: ADME, organism-based
READOUT KIND: Kp
When you answer, write just the number.

>  <SMILES NOTATION>
Cc1nnc2sc(C(=O)NCc3ccc(S(F)(F)(F)(F)F)cc3)c(N)c2c1C

>  <READOUT VALUE>
1.4

$$$$

Note Kp for the molecule shown: `Cc1nnc2sc(C(=O)NCc3ccc(S(=O)(=O)C(C)C)cc3)c(N)c2c1C` 0.07

Note Kp for the molecule shown: `Cc1nnc2sc(C(=O)NCc3ccc(S(=O)(=O)C(F)F)cc3)c(N)c2c1C` 0.11

---

# TARGET SYSTEM: Sodium-dependent serotonin transporter (Homo sapiens)
# Sequence (P31645 whole entry): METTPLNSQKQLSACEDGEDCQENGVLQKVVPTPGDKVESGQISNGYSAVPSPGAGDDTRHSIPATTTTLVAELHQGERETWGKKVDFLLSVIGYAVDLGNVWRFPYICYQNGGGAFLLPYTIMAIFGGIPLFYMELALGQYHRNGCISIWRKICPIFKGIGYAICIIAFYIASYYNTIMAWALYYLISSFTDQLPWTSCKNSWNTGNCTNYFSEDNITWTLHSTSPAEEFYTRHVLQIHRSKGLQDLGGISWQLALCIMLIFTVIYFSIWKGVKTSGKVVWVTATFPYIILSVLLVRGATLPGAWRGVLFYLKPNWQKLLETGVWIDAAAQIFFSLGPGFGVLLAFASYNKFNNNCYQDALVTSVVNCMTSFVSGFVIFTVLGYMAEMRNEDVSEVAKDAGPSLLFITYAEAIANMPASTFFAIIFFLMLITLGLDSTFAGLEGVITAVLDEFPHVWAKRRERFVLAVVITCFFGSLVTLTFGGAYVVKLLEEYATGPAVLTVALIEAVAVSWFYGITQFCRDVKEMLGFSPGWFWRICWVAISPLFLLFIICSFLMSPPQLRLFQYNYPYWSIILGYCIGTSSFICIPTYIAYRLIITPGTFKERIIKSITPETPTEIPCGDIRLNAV
# TEST: Displacement of [3H]-Paroxetine from recombinant human SERT expressed in HEK293 cells
READOUT KIND: pIC50
On this scale, pIC50 is minus log10 of a concentration expressed in M (mol/L).

>  <SMILES NOTATION>
Cc1nnc2sc(C(=O)NCc3ccc(S(F)(F)(F)(F)F)cc3)c(N)c2c1C

>  <pIC50>
6.28

$$$$

// switching to the query molecule
Note pIC50 for the molecule shown: `Cc1nnc2sc(C(=O)NCc3ccc(S(=O)(=O)C(F)F)cc3)c(N)c2c1C` 6.22

---

# TEST: Binding affinity to rat brain GABA receptor by radio-ligand binding assay
READOUT KIND: IC50 (µM)
Express the result in µM but write the number alone.

Note IC50 for the molecule shown: `Cc1nnc2sc(C(=O)NCc3ccc(S(F)(F)(F)(F)F)cc3)c(N)c2c1C` 2.1

---

# TARGET SYSTEM: Muscarinic acetylcholine receptor M4 (Homo sapiens)
# TEST: Positive allosteric modulation of human M4 receptor expressed in CHO cells co-expressing Gqui5 by calcium mobilization assay relative to acetylcholine
# Assay type: functional, cell-based
# Sequence (P08173 whole entry): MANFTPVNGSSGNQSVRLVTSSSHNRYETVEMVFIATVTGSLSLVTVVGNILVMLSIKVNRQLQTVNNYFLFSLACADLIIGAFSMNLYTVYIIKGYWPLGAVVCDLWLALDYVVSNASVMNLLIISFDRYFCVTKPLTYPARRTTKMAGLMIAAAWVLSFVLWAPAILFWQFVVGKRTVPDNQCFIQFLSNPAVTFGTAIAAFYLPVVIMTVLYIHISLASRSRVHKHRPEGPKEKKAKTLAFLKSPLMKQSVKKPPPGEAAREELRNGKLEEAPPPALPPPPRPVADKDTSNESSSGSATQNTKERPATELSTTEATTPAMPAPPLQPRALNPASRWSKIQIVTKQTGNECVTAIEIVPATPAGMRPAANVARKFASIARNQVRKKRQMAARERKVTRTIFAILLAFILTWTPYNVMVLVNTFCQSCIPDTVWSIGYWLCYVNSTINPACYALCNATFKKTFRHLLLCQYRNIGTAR
Quick rule: Emax of at least 70% means t, below that means f.

Use the examples below as a reference point.
>  <SMILES NOTATION>
Cc1nnc2sc(C(=O)NCc3ccc(S(C)(=O)=O)cc3)c(N)c2c1C

>  <CLASS>
t

$$$$
>  <SMILES NOTATION>
Cc1nnc2sc(C(=O)NCc3ccc(S(=O)(=O)CF)cc3)c(N)c2c1C

>  <CLASS>
f

$$$$
>  <SMILES NOTATION>
Cc1nnc2sc(C(=O)NCc3ccc(S(=O)(=O)C(F)F)cc3)c(N)c2c1C

>  <CLASS>
t

$$$$

# bool: Emax of `Cc1nnc2sc(C(=O)NCc3ccc(S(F)(F)(F)(F)F)cc3)c(N)c2c1C` >= 70% f

# bool: Emax of `Cc1nnc2sc(C(=O)NCc3ccc(S(=O)(=O)C(F)(F)F)cc3)c(N)c2c1C` >= 70% f

---

Cytochrome P450 3A4 (Homo sapiens) IC50 data
Sequence (P08684 whole entry): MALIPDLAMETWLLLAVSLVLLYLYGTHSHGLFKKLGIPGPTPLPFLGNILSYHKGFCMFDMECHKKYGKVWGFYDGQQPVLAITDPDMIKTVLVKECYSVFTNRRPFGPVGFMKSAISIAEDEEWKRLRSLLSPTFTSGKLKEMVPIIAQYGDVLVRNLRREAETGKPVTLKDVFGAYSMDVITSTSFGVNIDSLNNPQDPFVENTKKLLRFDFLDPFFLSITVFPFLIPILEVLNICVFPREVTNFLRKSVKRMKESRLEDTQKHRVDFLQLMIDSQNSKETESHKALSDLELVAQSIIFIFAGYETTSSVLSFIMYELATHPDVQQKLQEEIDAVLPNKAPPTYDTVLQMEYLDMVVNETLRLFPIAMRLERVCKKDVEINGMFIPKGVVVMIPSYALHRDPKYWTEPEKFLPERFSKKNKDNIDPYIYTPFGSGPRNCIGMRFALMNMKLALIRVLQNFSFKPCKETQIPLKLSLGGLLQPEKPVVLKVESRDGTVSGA

Past entries and their recorded results:
>  <SMILES NOTATION>
Cc1nnc2sc(C(=O)NCc3ccc(S(=O)(=O)C(F)(F)F)cc3)c(N)c2c1C

>  <IC50>
> 30 µM

$$$$
>  <SMILES NOTATION>
Cc1nnc2sc(C(=O)NCc3ccc(S(=O)(=O)C(F)F)cc3)c(N)c2c1C

>  <IC50>
> 30 µM

$$$$

Provide IC50, tested on Cytochrome P450 3A4 (Homo sapiens), for `Cc1nnc2sc(C(=O)NCc3ccc(S(F)(F)(F)(F)F)cc3)c(N)c2c1C` . > 30 µM

---

# TEST: Fraction unbound in rat
# Assay type: ADME
Recorded fraction unbound by entry
When you answer, write just the number.

>  <SMILES NOTATION>
COc1ccc(CNC(=O)c2sc3nnc(C)c(C)c3c2N)cc1

>  <fraction unbound>
0.022

$$$$

// switching to the query molecule
Note fraction unbound for the molecule shown: `COc1ccc(CNC(=O)c2sc3nc(C)cc(C)c3c2N)cc1` 0.015

---

# TEST: Volume of distribution at steady state in Sprague-Dawley rat at 1 mg/kg, iv
# Assay type: ADME, organism-based
# ASSAY CONTEXT: Sprague-Dawley, in vivo, read-out: Vdss
Recorded Vd by entry
Express the result in L/kg but write the number alone.

>  <SMILES NOTATION>
Cc1nnc2sc(C(=O)NCc3ccc(S(=O)(=O)C(F)F)cc3)c(N)c2c1C

>  <Vd, L/kg>
2.9

$$$$

Note Vd for the compound shown: `Cc1nnc2sc(C(=O)NCc3ccc(S(F)(F)(F)(F)F)cc3)c(N)c2c1C` 3.1

---

# TARGET SYSTEM: Muscarinic acetylcholine receptor M4 (Homo sapiens)
# TEST: Positive allosteric modulation of human M4 receptor
READOUT KIND: pEC50
On this scale, pEC50 is minus log10 of a concentration expressed in M (mol/L).

Note pEC50 for the compound shown: `COc1ccc(CNC(=O)c2sc3nnc(C)c(C)c3c2N)cc1` 6.82

---

# TARGET SYSTEM: Cytochrome P450 1A2 (Homo sapiens, UniProt P05177)
# Sequence (P05177 whole entry): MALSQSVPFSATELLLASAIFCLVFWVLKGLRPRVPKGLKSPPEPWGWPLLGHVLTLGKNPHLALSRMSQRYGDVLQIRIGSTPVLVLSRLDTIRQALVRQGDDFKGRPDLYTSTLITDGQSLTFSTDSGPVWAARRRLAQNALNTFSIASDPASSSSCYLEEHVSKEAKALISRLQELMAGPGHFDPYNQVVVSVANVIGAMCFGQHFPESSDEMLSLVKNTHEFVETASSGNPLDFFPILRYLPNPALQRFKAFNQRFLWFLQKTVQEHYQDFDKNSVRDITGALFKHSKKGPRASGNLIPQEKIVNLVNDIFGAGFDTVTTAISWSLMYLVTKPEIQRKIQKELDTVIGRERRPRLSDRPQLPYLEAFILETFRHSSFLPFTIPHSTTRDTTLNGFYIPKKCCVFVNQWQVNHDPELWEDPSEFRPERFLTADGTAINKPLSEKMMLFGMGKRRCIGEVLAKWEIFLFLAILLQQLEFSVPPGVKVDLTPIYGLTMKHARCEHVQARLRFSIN
# TEST: Inhibition of CYP1A2 (unknown origin)
# Format: ADME
READOUT KIND: IC50

>  <SMILES NOTATION>
Cc1nnc2sc(C(=O)NCc3ccc(S(=O)(=O)C(F)F)cc3)c(N)c2c1C

>  <READOUT VALUE>
> 30 µM

$$$$
>  <SMILES NOTATION>
Cc1nnc2sc(C(=O)NCc3ccc(S(F)(F)(F)(F)F)cc3)c(N)c2c1C

>  <READOUT VALUE>
> 30 µM

$$$$

// switching to the query molecule
Note IC50 for the molecule shown: `Cc1nnc2sc(C(=O)NCc3ccc(S(=O)(=O)C(F)(F)F)cc3)c(N)c2c1C` > 30 µM

---

# TARGET SYSTEM: Muscarinic acetylcholine receptor M4 (Homo sapiens) (UniProt P08173)
# TEST: Positive allosteric modulation of human M4 receptor expressed in CHO cells co-expressing Gqui5 by calcium mobilization assay relative to acetylcholine
# Sequence (P08173 whole entry, looked up): as the sequence (P08173 whole entry) above
READOUT KIND: Emax (%)
Express the result in % but write the number alone.

Past entries and their recorded results:
>  <MOLECULE>
Cc1nnc2sc(C(=O)NCc3cccc(S(C)(=O)=O)c3)c(N)c2c1C

>  <Emax / %>
74.6

$$$$
>  <MOLECULE>
Cc1nnc2sc(C(=O)NCc3ccc([S+](C)[O-])cc3)c(N)c2c1C (stereo not drawn)

>  <Emax / %>
74.2

$$$$
>  <MOLECULE>
Cc1nnc2sc(C(=O)NCc3ccc(S(C)(=O)=O)c(F)c3)c(N)c2c1C

>  <Emax / %>
69.2

$$$$

// switching to the query molecule
Note Emax for the molecule shown: `Cc1nnc2sc(C(=O)NCc3ccc(S(=O)(=O)C(C)C)cc3)c(N)c2c1C` 76.8

---

# TARGET SYSTEM: Muscarinic acetylcholine receptor M4 (Homo sapiens, UniProt P08173)
# TEST: Positive allosteric modulation of human M4 receptor expressed in CHO cells co-expressing Gqui5 by calcium mobilization assay
# Format: functional, cell-based
# ASSAY CONTEXT: read-out: EC50
Recorded pEC50 by entry
On this scale, pEC50 is minus log10 of a concentration expressed in M (mol/L).

Past entries and their recorded results:
>  <SMILES NOTATION>
Cc1nnc2sc(C(=O)NCc3ccc(S(F)(F)(F)(F)F)cc3)c(N)c2c1C

>  <pEC50>
6.26

$$$$
>  <SMILES NOTATION>
CSc1ccc(CNC(=O)c2sc3nnc(C)c(C)c3c2N)cc1

>  <pEC50>
7.22

$$$$
>  <SMILES NOTATION>
Cc1nnc2sc(C(=O)NCc3ccc(S(=O)(=O)C(F)F)cc3)c(N)c2c1C

>  <pEC50>
6.60

$$$$

Note pEC50 for the compound shown: `Cc1nnc2sc(C(=O)NCc3ccc(S(C)(=O)=O)cc3)c(N)c2c1C` 6.44

Taken from ChEMBL document CHEMBL3872258.
